Test system: SARS-CoV-2 virus
No end group written: not given here.
Please assign Not met whenever IC50 is at or above 9 µM, and Met whenever it is below.

> print(dat)
                              sequence.chain    assayed.system    label
 1  DFWSKLVYFFAEIIRFLS [SP-143, DFWSKLVYFFAEIIRFLS]  SARS-CoV-2 virus  Not met
 2  YNLFDLLIYIWNKIFDDY [SP-049, YNLFDLLIYIWNKIFDDY]  SARS-CoV-2 virus      Met
 3  ILDFFVGFIDWLVRYLNK [SP-046, ILDFFVGFIDWLVRYLNK]  SARS-CoV-2 virus      Met
 4  DVTRLLELILDVLAYIIS [SP-151, DVTRLLELILDVLAYIIS]  SARS-CoV-2 virus      Met
 5  FTFWTWLEAILDLIKKHI [SP-116, FTFWTWLEAILDLIKKHI]  SARS-CoV-2 virus      Met
 6  ILVRWLSHFFEYLDRFYT [SP-221, ILVRWLSHFFEYLDRFYT]  SARS-CoV-2 virus  Not met
 7  SWKEIVNLLYELLASLIR [SP-101, SWKEIVNLLYELLASLIR]  SARS-CoV-2 virus  Not met
 8  DKIVLFILSILEKIYNLL [SP-171, DKIVLFILSILEKIYNLL]  SARS-CoV-2 virus  Not met
 9  SFLDIVWSIIDIFKEFCK [SP-003, SFLDIVWSIIDIFKEFCK]  SARS-CoV-2 virus  Not met
10  WSEILREFLNLISLIWSR [SP-110, WSEILREFLNLISLIWSR]  SARS-CoV-2 virus  Not met
11  FSFWVWLDNIIDLVKKYI [SP-114, FSFWVWLDNIIDLVKKYI]  SARS-CoV-2 virus  Not met

###

System: dengue virus
Conditions: Conc. 15.63 nM
No end group written: not given here.
Reported % Inhibition values for the following sequences.
PROPERTY NAME: % Inhibition (%)

> print(dat)
                             sequence.chain  obs.value
1  QSFLDIVWSIIDIFKEFC [SP-004, QSFLDIVWSIIDIFKEFC]       6.56
2  YNLFDLLIYIWNKIFDDY [SP-049, YNLFDLLIYIWNKIFDDY]     100.00
3  ESLKNFWESLWKFFTHFF [SP-001, ESLKNFWESLWKFFTHFF]      45.60
4  DFWSKLVYFFAEIIRFLS [SP-143, DFWSKLVYFFAEIIRFLS]      53.07
5  SWKEIVNLLYELLASLIR [SP-101, SWKEIVNLLYELLASLIR]      20.94
6  SFLDIVWSIIDIFKEFCK [SP-003, SFLDIVWSIIDIFKEFCK]      38.56

###

Test system: dengue virus
Conditions: Conc. 125.00 nM
No end group written: not given here.
This section presents sequences with their documented % Inhibition values.
PROPERTY NAME: % Inhibition (%)

> print(dat)
                             sequence.chain  assayed.system  obs.value
1  ILDFFVGFIDWLVRYLNK [SP-046, ILDFFVGFIDWLVRYLNK]    dengue virus     100.00
2  ESLKNFWESLWKFFTHFF [SP-001, ESLKNFWESLWKFFTHFF]    dengue virus      82.51
3  DFWSKLVYFFAEIIRFLS [SP-143, DFWSKLVYFFAEIIRFLS]    dengue virus      99.42
4  SWKEIVNLLYELLASLIR [SP-101, SWKEIVNLLYELLASLIR]    dengue virus      65.09
5  SFLDIVWSIIDIFKEFCK [SP-003, SFLDIVWSIIDIFKEFCK]    dengue virus      99.91
6  QSFLDIVWSIIDIFKEFC [SP-004, QSFLDIVWSIIDIFKEFC]    dengue virus      34.78
